In this section we review reported hepatocyte CLint values for a set of compounds.
- System: Hepatocyte
- assay name: Intrinsic clearance in rat hepatocytes measured per 10^6 cells
- Assay type: ADME, cell-based
Give the figure together with its unit, number first.

**Q:** State the recorded hepatocyte CLint for this entry: CC[C@@H](CS(=O)(=O)C(C)(C)C)N1C(=O)[C@@](C)(CC(=O)O)C[C@H](c2cccc(Cl)c2)[C@H]1c1ccc(Cl)cc1
**A:** 6.7 µL/min/1e6 cells

Attention now turns to another entry.
**Q:** State the recorded hepatocyte CLint for this entry: CC[C@@H](CS(=O)(=O)C(C)(C)C)N1C(=O)[C@@H](CC(=O)O)O[C@H](c2cccc(Cl)c2)[C@H]1c1ccc(Cl)cc1
**A:** 1.8 µL/min/1e6 cells

* * *

- assay name: Intrinsic clearance in mouse hepatocytes measured per 10^6 cells
- Assay type: ADME, cell-based, Hepatocyte
- condition summary: read-out: CLH
result type: hepatocyte CLint (µL/min/1e6 cells)
Give the number; µL/min/1e6 cells is assumed, so skip it.

**Q:** State the recorded hepatocyte CLint for this entry: CC(C)(C)S(=O)(=O)C[C@H](C1CC1)N1C(=O)[C@@H](CC(=O)O)O[C@H](c2cccc(Cl)c2)[C@H]1c1ccc(Cl)cc1
**A:** 6

* * *

- Test system: Hepatocyte
- assay name: Intrinsic clearance in mouse hepatocytes measured per 10^6 cells
- Format: ADME, cell-based
In this section we review reported hepatocyte CLint values for a set of compounds.
Give the number; µL/min/1e6 cells is assumed, so skip it.

**Q:** State the recorded hepatocyte CLint for this entry: CC[C@@H](CS(=O)(=O)C(C)(C)C)N1C(=O)[C@@H](CC(=O)O)O[C@H](c2cccc(Cl)c2)[C@H]1c1ccc(Cl)cc1
**A:** 12

Continuing:
**Q:** State the recorded hepatocyte CLint for this entry: CC[C@@H](CS(=O)(=O)C(C)(C)C)N1C(=O)[C@@](C)(CC(=O)O)C[C@H](c2cccc(Cl)c2)[C@H]1c1ccc(Cl)cc1
**A:** 18

* * *

- Test system: Hepatocyte
- assay name: Intrinsic clearance in human hepatocytes measured per 10^6 cells
- Assay type: ADME, cell-based
result type: hepatocyte CLint (µL/min/1e6 cells)
Give the number; µL/min/1e6 cells is assumed, so skip it.

**Q:** Give the reported hepatocyte CLint for CC[C@@H](CS(=O)(=O)C(C)(C)C)N1C(=O)[C@@](C)(CC(=O)O)C[C@H](c2cccc(Cl)c2)[C@H]1c1ccc(Cl)cc1 (system: Hepatocyte).
**A:** 15

* * *

- assay name: Clearance in rat at 0.5 mg/kg, iv
- Format: ADME, organism-based
- Set-up: dose 0.5 mg/kg, route intravenous
- condition summary: in vivo
result type: clearance (mL/min/kg)
Give the number; mL/min/kg is assumed, so skip it.

These solved cases illustrate the format of a correct answer.
**Q:** State the recorded clearance for this entry: CC(C)(C)S(=O)(=O)C[C@H](C1CC1)N1C(=O)[C@@H](CC(=O)O)O[C@H](c2cccc(Cl)c2)[C@H]1c1ccc(Cl)cc1
**A:** 5.83

**Q:** Repeat for the following molecule: CC(C)[C@@H](CS(=O)(=O)C(C)(C)C)N1C(=O)[C@@H](CC(=O)O)O[C@H](c2cccc(Cl)c2)[C@H]1c1ccc(Cl)cc1
**A:** 1.83

**Q:** Repeat for the following molecule: CC[C@@H](CS(=O)(=O)C(C)(C)C)N1C(=O)[C@@H](CC(=O)O)O[C@H](c2cccc(Cl)c2)[C@H]1c1ccc(Cl)cc1
**A:** 3.83

Attention now turns to another entry.
**Q:** State the recorded clearance for this entry: CC(C)(C)S(=O)(=O)C[C@H](CC(F)(F)F)N1C(=O)[C@@H](CC(=O)O)O[C@H](c2cccc(Cl)c2)[C@H]1c1ccc(Cl)cc1
**A:** 7.17

Reference for the values: ChEMBL document CHEMBL3232857
